Reference source: patent US20050009924A1

experiment: MTT relative viability, PhTERT-SEAP (hTERT-BJ1) cells; conditions: human, hTERT-BJ1 cells, stable PhTERT-SEAP reporter clone
measured-attribute: viability at 48 h, 189 µM (%)
Give bare numbers, in %.

Just so you know, measured viability at 48 h, 189 µM for O=C1c2ccccc2C(=O)c2c(NC(=O)[C@@H]3C[C@H]3c3ccccc3)ccc(NC(=O)[C@@H]3C[C@H]3c3ccccc3)c21 (relative stereo) came out at 104

###

tested on: non-small-cell lung cancer cells H1299; experiment: MTT relative viability, PhTERT-SEAP (H1299) cells; settings: 19 μM, PhTERT-SEAP(hTERT-H1299)
measured-attribute: Relative MTT viability (%)
Answers are plain numbers, in %.

Solved cases below.
O=C(Nc1ccc(NC(=O)c2cccc(Cl)c2)c2c1C(=O)c1ccccc1C2=O)c1cccc(Cl)c1    102
O=C(Nc1ccc(NC(=O)c2ccccc2Cl)c2c1C(=O)c1ccccc1C2=O)c1ccccc1Cl    72
O=C(Nc1ccc(NC(=O)c2ccc(F)cc2F)c2c1C(=O)c1ccccc1C2=O)c1ccc(F)cc1F    85

Value of measured Relative MTT viability (%) for the entry O=C(Nc1ccc(NC(=O)c2ccc(Cl)cc2)c2c1C(=O)c1ccccc1C2=O)c1ccc(Cl)cc1 : 89

###

experiment: MTT relative viability, PhTERT-SEAP (H1299) cells; conditions: human
measured-attribute: viability at 48 h, 200 µM (%)
Give bare numbers, in %.

The compound O=C(CCc1ccccc1)Oc1cccc2c1C(=O)c1cccc(OC(=O)CCc3ccccc3)c1C2=O showed viability at 48 h, 200 µM equal to 54

###

assay: MTT relative viability, PhTERT-SEAP (hTERT-BJ1) cells; settings: human
measured-attribute: viability at 48 h, 223 µM

// O=C1c2cccc(NCCc3ccccc3)c2C(=O)c2cccc(NCCc3ccccc3)c21 [IVs, 1,5-Bis(phenylethylamino)-anthraquinone] : viability at 48 h, 223 µM value = 81%

###

test: MTT relative viability, PCMV-SEAP (hTERT-BJ1) cells; assay type: cell-based; details: human, stable PCMV-SEAP reporter clone, 24 μM
measured-attribute: viability at 48 h, 24 µM (%)
Give bare numbers, in %.

The reported value for CC(C)(C)C(=O)Oc1cccc2c1C(=O)c1cccc(OC(=O)C(C)(C)C)c1C2=O in terms of viability at 48 h, 24 µM is 104

###

test: MTT relative viability, PhTERT-SEAP (hTERT-BJ1) cells; details: human
measured-attribute: viability at 48 h, 3 µM (%)
Answers are plain numbers, in %.

Documented viability at 48 h, 3 µM of CCSc1cccc2c1C(=O)c1cccc(SCC)c1C2=O [IIa, 1,5-Bis(ethylthio)-anthraquinone] : 112

###

Exercise: for every item that follows, state its recorded viability at 48 h, 26 µM.
assay: MTT relative viability, PhTERT-SEAP (H1299) cells; details: human
Numbers only, in %.

CN(C)CCNc1cccc2c1C(=O)c1cccc(NCCN(C)C)c1C2=O    81

Consider now this further compound.
Summary for this compound, CCCC(=O)Oc1cccc2c1C(=O)c1cccc(OC(=O)CCC)c1C2=O : viability at 48 h, 26 µM is 106

###

tested on: transcriptional activity of hTERT; assay: SEAP reporter assay of hTERT expression, PhTERT-SEAP (hTERT-BJ1); format: cell-based, human; settings: 23 μM, PhTERT-SEAP (hTERT-BJ1)
Kindly state SEAP/vibility for each of the entries shown.
Give bare numbers.

Can you give me SEAP/vibility for all of these, one by one?
1. O=C(CCCl)Nc1ccc(NC(=O)CCCl)c2c1C(=O)c1ccccc1C2=O
2. O=C1c2ccccc2C(=O)c2c(NC(=O)C3CCCC3)ccc(NC(=O)C3CCCC3)c21
3. CC(Cl)C(=O)Nc1ccc(NC(=O)C(C)Cl)c2c1C(=O)c1ccccc1C2=O (stereo not shown)
4. O=C(Nc1ccc(NC(=O)c2ccco2)c2c1C(=O)c1ccccc1C2=O)c1ccco1

Found:
1. 0.48
2. 0.90
3. 1.49
4. 0.65

###

assay: MTT relative viability, PhTERT-SEAP (hTERT-BJ1) cells; settings: human, hTERT-BJ1 cells, stable PhTERT-SEAP reporter clone
Would you kindly list viability at 48 h, 190 µM for each of these molecules?
Give bare numbers, in %.

Use the examples below as a reference point.
O=C(Oc1cccc2c1C(=O)c1cccc(OC(=O)c3ccccc3Cl)c1C2=O)c1ccccc1Cl    40
O=C(Oc1cccc2c1C(=O)c1cccc(OC(=O)c3ccc(Cl)cc3)c1C2=O)c1ccc(Cl)cc1    48

# viability at 48 h, 190 µM (molecule: O=C(Oc1cccc2c1C(=O)c1cccc(OC(=O)c3cccc(Cl)c3)c1C2=O)c1cccc(Cl)c1 ) is 44

###

assay: MTT relative viability, PhTERT-SEAP (hTERT-BJ1) cells; settings: human, hTERT-BJ1 cells, stable PhTERT-SEAP reporter clone
measured-attribute: viability at 48 h, 200 µM

For this compound ( O=C(CCc1ccccc1)Oc1cccc2c1C(=O)c1cccc(OC(=O)CCc3ccccc3)c1C2=O ), measured viability at 48 h, 200 µM is 76%

###

Give measured viability at 48 h, 2.8 µM for each item. Keep answers brief.
assay: MTT relative viability, PhTERT-SEAP (H1299) cells; settings: human
Answers are plain numbers, in %.

Consider the worked cases shown below.
CCCCNc1cccc2c1C(=O)c1cccc(NCCCC)c1C2=O    102
CC(C)CNc1cccc2c1C(=O)c1cccc(NCC(C)C)c1C2=O    108
CCCSc1cccc2c1C(=O)c1cccc(SCCC)c1C2=O    96

List reported viability at 48 h, 2.8 µM for each of these compounds:
1. O=C1c2cccc(SCCO)c2C(=O)c2cccc(SCCO)c21 [IIb, 1,5-Bis(hydroxyethylthio)-anthraquinone]
2. CCC(=O)Oc1cccc2c1C(=O)c1cccc(OC(=O)CC)c1C2=O

Found:
54
116

###

Please respond with reported Relative MTT viability (%) for every item in the list.
tested on: hTERT-BJ1 cells; test: MTT relative viability, PhTERT-SEAP (hTERT-BJ1) cells; conditions: 2.0 μM, PhTERT-SEAP (hTERT-BJ1)
Numbers only, in %.

O=C(Nc1ccc(NC(=O)c2cccc(F)c2)c2c1C(=O)c1ccccc1C2=O)c1cccc(F)c1    102

# batch size: 4; output Relative MTT viability (%) per entry
1. O=C(Nc1ccc(NC(=O)c2ccccc2F)c2c1C(=O)c1ccccc1C2=O)c1ccccc1F
2. Cc1cc(C(=O)Nc2ccc(NC(=O)c3cc(C)oc3C)c3c2C(=O)c2ccccc2C3=O)c(C)o1
3. NCC1CC1CCC(=O)Nc1ccc(NC(=O)CCC2CC2CN)c2c1C(=O)c1ccccc1C2=O (centres unmarked)
4. O=C(Nc1ccc(NC(=O)c2ccc(F)cc2)c2c1C(=O)c1ccccc1C2=O)c1ccc(F)cc1

Found:
1. 106
2. 101
3. 103
4. 103

###

test system: transcriptional activity of hTERT; experiment: SEAP reporter assay of hTERT expression, PhTERT-SEAP (H1299); type: cell-based, human; conditions: Homo sapiens, NCI-H1299; 20 μM, PhTERT-SEAP(hTERT-H1299); read-out: Relative SEAP activity (%)
measured-attribute: activity at 20 µM (%)
Numbers only, in %.

O=C(Cc1cccs1)Nc1ccc(NC(=O)Cc2cccs2)c2c1C(=O)c1ccccc1C2=O [VI25]    115
CCN(CC)C(C)C(=O)Nc1ccc(NC(=O)C(C)N(CC)CC)c2c1C(=O)c1ccccc1C2=O (stereo not shown) [VI35]    104
CCN(CC)CCC(=O)Nc1ccc(NC(=O)CCN(CC)CC)c2c1C(=O)c1ccccc1C2=O [VI34]    53

The recorded activity at 20 µM for O=C(CCC1CCCC1)Nc1ccc(NC(=O)CCC2CCCC2)c2c1C(=O)c1ccccc1C2=O [VI19] is 116

###

assay: MTT relative viability, PhTERT-SEAP (hTERT-BJ1) cells; conditions: human, hTERT-BJ1 cells, stable PhTERT-SEAP reporter clone
measured-attribute: viability at 48 h, 230 µM
Field note: include the unit after the figure.

viability at 48 h, 230 µM in this record for CCCCCC(=O)Oc1cccc2c1C(=O)c1cccc(OC(=O)CCCCC)c1C2=O : 62%

###

assay: MTT relative viability, PhTERT-SEAP (hTERT-BJ1) cells; details: human, hTERT-BJ1 cells
measured-attribute: viability at 48 h, 339 µM (%)
Answers are plain numbers, in %.

viability at 48 h, 339 µM reported for this molecule CCNc1cccc2c1C(=O)c1cccc(NCC)c1C2=O [IVa, 1,5-Bis(ethylamino)anthraquinone] : 99

###

system: transcriptional activity of hTERT; assay: SEAP reporter assay of hTERT expression, PhTERT-SEAP (H1299); format: cell-based, human; conditions: Homo sapiens, NCI-H1299; 21 μM, H1299; read-out: Relative SEAP activity (%)
measured-attribute: activity at 21 µM (%)
Numbers only, in %.

Examples with answers:
Cc1ccccc1C(=O)Oc1cccc2c1C(=O)c1cccc(OC(=O)c3ccccc3C)c1C2=O    91
O=C1c2cccc(SCCCCCCO)c2C(=O)c2cccc(SCCCCCCO)c21 [IIe, 1,5-Bis(hydroxyhexylthio)-anthraquinone]    100
Cc1ccc(C(=O)Oc2cccc3c2C(=O)c2cccc(OC(=O)c4ccc(C)cc4)c2C3=O)cc1    95
Cc1cccc(C(=O)Oc2cccc3c2C(=O)c2cccc(OC(=O)c4cccc(C)c4)c2C3=O)c1    116

As a next step, examine the molecule that follows.
// field: activity at 21 µM; key: O=C(Cc1ccccc1)Oc1cccc2c1C(=O)c1cccc(OC(=O)Cc3ccccc3)c1C2=O ; value = 101
